Molecular target: NL20 human bronchial epithelial cells expressing human Z-AAT (Homo sapiens, UniProt P01009, E366K)
Sequence (P01009 25-418 E366K): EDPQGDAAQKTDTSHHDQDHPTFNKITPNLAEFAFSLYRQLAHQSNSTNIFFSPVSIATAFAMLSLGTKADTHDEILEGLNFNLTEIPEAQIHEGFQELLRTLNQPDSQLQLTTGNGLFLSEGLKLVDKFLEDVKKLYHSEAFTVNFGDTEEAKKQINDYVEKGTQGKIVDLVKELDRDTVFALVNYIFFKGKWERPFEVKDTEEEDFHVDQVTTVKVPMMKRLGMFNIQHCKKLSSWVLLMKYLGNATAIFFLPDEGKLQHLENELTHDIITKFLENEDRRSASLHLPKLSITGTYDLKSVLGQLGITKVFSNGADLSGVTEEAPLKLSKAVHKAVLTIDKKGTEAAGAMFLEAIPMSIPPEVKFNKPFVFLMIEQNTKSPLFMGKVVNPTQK
Test: AAT Function Assay (MSD Assay NL20-SI Cell Line)
Conditions: functionally active AAT (AAT-hNE complex, MSD) from NL20 cells expressing human Z-AAT; read-out: NL20 Functional EC50
# EC50 per entry

Example entries and their recorded answers appear below.
>  <COMPOUND>
CC(C)c1c(-c2ccc(F)c(F)c2)c2cc3cn[nH]c3cc2c(=O)n1[C@H]1C[C@@](C)(C(=O)O)C1 [Compound 238]

>  <EC50>
1160 to 3000 nM

$$$$
>  <COMPOUND>
CC(C)c1nc(OC2CC3(C2)CC(C(=O)O)C3)c2cc3[nH]ncc3cc2c1-c1ccc(F)cc1 (centres unmarked) [Compound 100]

>  <EC50>
< 1160 nM

$$$$

Request the reported EC50 associated with CC(C)c1ncc2cc3[nH]ncc3cc2c1-c1ccc(F)cc1 [Compound 122]
1160 to 3000 nM

Item Cc1sc(Oc2nc(C3CCOCC3)c(-c3ccc(F)cc3)c3cc4cn[nH]c4cc23)nc1C(=O)O [Compound 70] has what recorded EC50?
> 3000 nM

Any idea what its EC50 is? The compound is CC(C)c1nc(-c2cc(Cl)c(C(=O)O)cc2F)c2cc3[nH]ncc3cc2c1-c1ccc(F)cc1 [Compound 116]
< 1160 nM

# EC50 lookup, item CCOC(=O)CN1CCC2(CC(Oc3nc(C(C)C)c(-c4ccc(F)cc4)c4cc5cn[nH]c5cc34)C2)C1=O (single isomer, unassigned) [Compound 126]
> 3000 nM

Returns the measured EC50 for the input compound. Input: CC(C)c1nc(OCC2CCC(C(=O)O)O2)c2cc3[nH]ncc3cc2c1-c1ccc(F)cc1 (centres unmarked) [Compound 97]
< 1160 nM

Name the reported EC50 value associated with the compound O=C(O)c1ccc(-c2nc(C3CCOCC3)c(-c3ccc(F)cc3)c3cc4cn[nH]c4cc23)cc1 [Compound 92]
1160 to 3000 nM

Dear colleague, I am looking for the recorded EC50 of the following compound: CC(C)c1c(-c2ccc(F)c(F)c2)c2cc3cn[nH]c3cc2c(=O)n1[C@H]1C[C@](C)(C(=O)O)C1 [Compound 239]
< 1160 nM

Using the record for Cc1cc(-c2c(C3CCOCC3)nc(OC3CC4(C3)CC(CO)(CO)C4)c3cc4[nH]ncc4cc23)ccn1 [Compound 29] , report its EC50.
1160 to 3000 nM

Would you kindly share the measured EC50 for Cc1cc(-c2c(C3CCOCC3)nc(OC3CN(C(=O)[C@H](C)O)C3)c3cc4[nH]ncc4cc23)ccn1 [Compound 39] ?
< 1160 nM

These data points were gathered from patent US12624028B2.
